Measured values drawn from the DeepSol protein solubility set for this set.

# assay.remarks: soluble on expression in E. coli; label from the status in PepcDB or PDB records
measurement.name: soluble on expression in E. coli

Observe how each entry below is paired with its result.
INSERT INTO results (sequence_code, result) VALUES
  ('SLSKLMLRHKAKKIDHVAIAVLDLEQAIGYFSMMGFTLSDRMTTTGAHSAMHSAVMEAGPIKFVLLEGANETSQITRFINEYGPGPQHIAIEVENVESLCKELEKQGLDFSTKTIKGPELIQRFTVRCPNSGVMIEFIERNEEEGFSEQNVEDLFRQLEASDAYEG', 'soluble'),
  ('MCMSSQSYFKSVMYALVTGGTRGIGRAITEALLKEGYNVAVLYHGSEDKAKELREKGVLTVRCDVGDRNQVKKAKEEISNHFPRLDVLVNNAGIWYLMPFEQFDEEKYERMLRVNLNGTIYVTYEFLSLLKKSSAASIINIASNAGIGTAAEGTTFYAITKAGIIILTRRLAFELGKYGIRVNAVAPGWIETDMTLGNKSDEEKEKLREIFRNKTVLHTTGKPEDIANIVVFLASEKARYITGQVIVADGGRIDNLTHSV', 'soluble'),
  ('MSLANNKISQTTKKLSQIFNSEKQPAVFFDKNVSTIEENNSLLDGQTDVPVLDPHDLLVEVQAVSVNPVDTKLRQTGVASKIKILGYDAFGIVKNTGKDVTRFHAGDRVYYAGTTQRPGSNEKFQAVDERLVGRAPEKLNKSEIAAMPLTSITAYEILVDQLGLRFQNHAADGKNMLVINGAGGVGSVLLQMAAYLGINLSVTAHSSESIEWLKKYSVDKIYDYENIDETLADQKFDYIVFLYDPALYWDIAIKHIKPYGQLVSIVGTNKPLNMGPLKNIAVQFKWEYMFAKSDFNHNILSQGQALDKIAILLDAGILKTTLNKTFDLINAENLRQAYKLVESGRMQGKVVLNGEGHHHHHH', 'not soluble'),
  ('MGSDKIHHHHHHMTTDGQLAYQQTCDYPIEERQSEQQVIRQYLPLIKRIVSQMRSHCGVMLSLEDMEQIGMMALLESSRRYPGELDNGFISFAGQRIRGAILDELRRQDWRPRPVRQQAHELNDVVRRLSREMGREPSDLEVASALGLSAEDYRERLYSTQAESMKSLDELLLVGEHPVDRGNDVEQLMLKQTLIKVISKLNEREQLILSLYYHHELNLKEIAMALGLTETRICQLHKSAISQLKTILQR', 'not soluble'),
  ('MRLFAIVLLCLVLATCASHIPSARVTHPASAGLPGLQGFQLMPPEQAVDALPYRNRYPLINAELRQGLAAHGYHESATPQFRVYYWLALRDAPLEFRPDLPPTSGMGPYLAIHRLRDETGTLRVRLVDLEERVLWEGMVSTGLSPARANPEQLELAVGALLRQLPRAR', 'not soluble'),
  ('MGSDKIHHHHHHMAATFKMVGVIRFSLLTPTFNADRYPDLEAAAAAIFAPDRMALRLHLFETLCLPSLVRQSDAAFHLVVATSDRLPAVILQHLQALLAPHDHMQLIQFAPENHYQILKEAYRAVPQQGESHRILFRLDDDDALDRHYVARCKRLAAGLVPLQTEAVSPIALAFNRGYYLIREEGQPPVVMDSCERAPLSAGTALVQPIAARGNPYRYNHRKFAQHYTLYSDISVPSFVRTVHGDNHSTPAMMGLTARQSDAEMDADLQRHFDLSLSDLKAI', 'not soluble'),
  ('MGSDKIHHHHHHMRDQAESLRRMVDGVMEQGRGQGKVIAVVSGKGGVGKSNVSLNFALTLSRQNQKVALIDLDLGMGNLDILMGLSPSYHIIDMIKRELTIWDIAEQGPEGITYIAGGSGLSELVELNERQMERFFQQLESLGAIYDYIILDMGAGATAESLRFILSAHEIFVVTTPEPTSITDAYAMVKYICKEPIENPEILLIVNRAESKREGEQTAANFKRVVSHFLKKDIHSLGYLPQDSHVVKAVKAQAPFVLHAPQAKASMAMGKLVHTYLGHRVDRGAPSYQSFMKKIRKWFR', 'not soluble'),
  ('MGSDKIHHHHHHMKSYRKELWFHTKRRREFINITPLLEECVRESGIKEGLLLCNAMHITASVFINDDEPGLHHDFEVWLEKLAPEKPYSQYKHNDTGEDNADAHLKRTIMGREVVIAITDRKMDLGPWEQVFYGEFDGMRPKRVLVKIIGE', 'soluble');

Okay, next one:
Per the records, this sequence ( MITVSIVSHGQSTLVEQLLADLVRLDMSMVTEVLVTLNIPEDISSKPGDYPYPVRILRNTAARGFGANHNAAFRQAEGEWFCVMNPDIRLINNPFPILIEEGAYDSAGVIAPMVVTPSGMIEDSVRCFPVLTSLAAKLFGHGDGRYLFAAGDEAFAADWVAGMFMLFRTEDFRAVGGFDEGFFLYYEDVDICARLWKSGRSVLACPKASVIHDARRSSRRNLRYMKWHALSLIRYFWKHWGRLPQTPEQLEHHHHHH ) has soluble on expression in E. coli equal to soluble

* * *

# assay.remarks: soluble on expression in E. coli; label from the status in PepcDB or PDB records
measurement.name: soluble on expression in E. coli

INSERT INTO measurements (sequence_code, result) VALUES
  ('MGSDKIHHHHHHMVSEECSSFFYLHNSDFNMFGKKKNEDYSVKTVKVGVDKLTTIALGTMVKGTITVEGDLRLDGIIEGNVSCRGKVVIGPQGRIKGNVTCTGAVLHGMLQGDIQVAEDLIMKSGCTMNGDVYTCKLEIESKARFNGTCNTTEKDTLVTSQVVKPETVDTEK', 'not soluble'),
  ('AWFDWPVHRVYVNIGKTRRFHQHYYRRDVGSHVWQHNPVHRRGVAYRDRKTSDFYGKRPPRMAPVRPETRGYPGKFPGRPESRQQQPARERRDVPGAPQTGKGPGQVPRRDSTVAPQAQPPQREQVQKPARRDTPFQGVGEGSFERRAIKRGESSIRSVTPAPQGGGRGGWSGQRAPSGGGRGGGEMRMPGGGGGGGRGGGKKEFR', 'not soluble'),
  ('MSIMSYTGGTVVAMAGDECVCIASDLRIGEQMTTIATDQKKVHKVTDKVYVGLAGFQSDARTVLEKIMFRKNLYELRENRNIKPQVLSEMISNLAYQHRFGSYFTEPLVAGLDDTNKPYICCMDTIGCVSAPRDFVAVGTGQEYLLGVCENFWRENMKPDELFEATAQSILSCLERDAASGWGAVVYTITKDKVNVSTIKARMD', 'not soluble'),
  ('MTDKLPFALYSRCVKAGKRFYYIDAKRDSKGNDYLVITESNSAEEGSAMTRHKVFLYREDFAKFTEAFLDVLKSFEKRSGVSGCEQAIGLSELEQSLSDMTTGVEGLAESSDSILEEDEPLKIDFDF', 'not soluble'),
  ('MRIEEDLKLGFKDVLIRPKRSTLKSRSDVELERQFTFKHSGQSWSGVPIIAANMDTVGTFSMASALASFDILTAVHKHYSVEEWQAFINNSSADVLKHVMVSTGTSDADFEKTKQILDLNPALNFVCIDVANGYSEHFVQFVAKAREAWPTKTICAGNVVTGEMCEELILSGADIVKVGIGPGSVCTTRVKTGVGYPQLSAVIECADAAHGLGGMIVSDGGCTTPGDVAKAFGGGADFVMLGGMLAGHEESGGRIVEENGEKFMLFYGMSSESAMKRHVGGVAEYRAAEGKTVKLPLRGPVENTARDILGGLRSACTYVGASRLKELTKRTTFIRVQEQENRIFNNL', 'soluble');

Okay, now this sequence:
The measured soluble on expression in E. coli associated with MSLHGKLIQFHKFGNPKDVLQVEYKNIEPLKDNEVFVRMLVRPINPSDLIPITGAYAHRIPLPNIPGYEGVGIVENVGAFVSRELIGKRVLPLRGEGTWQEYVKTSADFVVPIPDSIDDFTAAQMYINPLTAWVTCTETLNLQRNDVLLVNACGSAIGHLFAQLSQILNFRLIAVTRNNKHTEELLRLGAAYVIDTSTAPLYETVMELTNGIGADAAIDSIGGPDGNELAFSLRPNGHFLTIGLLSGIQVNWAEIVTKAKVHANIFHLRHWNDEVSPYKWQETFRHLIRLVENEQLRFMKVHSTYELADVKAAVDVVQSAEKTKGKVFLTSYEGHHHHHH reads soluble

* * *

# assay.remarks: soluble on expression in E. coli; label from the status in PepcDB or PDB records
measurement.name: soluble on expression in E. coli

INSERT INTO assay_data (sequence_code, measurement_name, result) VALUES
  ('VDEKALKHITEMGFSKEASRQALMDNGNNLEAALNVLLTSNKQKPVMGPP', 'soluble on expression in E. coli', 'soluble'),
  ('SKDLSVSLQANFTYNKNKMVYVDEPEYPTIWKSETGKPYSRITGYIAEGLFKSQEEIDNSPAQNLGSTPKVGDIKYRDLNGDGIIDSDDQTMISKYGSTPRLQYGFGGTVNYKKFDFGVFFSGSALRSIMTNGIDPFQEGIAVGNRNVLKYIADNYWSEEKQNWDAKYPRLGLLATDVANNTVNSSYWLRNGSFLRLKNVEVGYKIPYGRIFVSAANLFTFSPFDLWDPELSSWNSYPMQKTVNVGIQLQF', 'soluble on expression in E. coli', 'not soluble'),
  ('MAHHHHHHMCLVKLYKRCFVRVPPHCVTVVYETRRNSILASSMEEANNELPQVSHFRPLMYIVSLLLYRSKKLVIVPPTSFFSTFTLPCSVLDESGDGEVVDCTVEDIHVTDGSVRMVMTIRYCIPINELERYLAAVGPTAPNERIALAAAGAARARGAELSVGLIINKSKRDTAFLEPFRAHLSSKLMSESCVKVLDVVVEAAEIADRSLGG', 'soluble on expression in E. coli', 'not soluble'),
  ('MSLKKATLKDIAEYFGVSISTVSRALSGKPGVSSELREKILEKAREIGYTPNLMALGLKKGNTRTVGVLIPELSANFFADIVSSIEKSLFHLGYRLILCSTDDDPVKEREHLQLLLDQKVEGILSAPVNVKENKDIYNSIINHFKIPVVFFDRLVEGVDSDFVISDNREGMEILVNYLVKHGHKKIGLIHPLRGSFTGEERLKGFLLFKDSIEIREEWIRDGRSSEQGGYESFLRIMTSQERPTAIVIGNNLMTLGVLKAAKELNIKIPEDISLVSFDDAYWNEIFDPPITCVRQDPQQIGLIAATILLDRMKNRKKPSPRMQVVLKVKFVERSSVRTIKTLKDEGHHHHHH', 'soluble on expression in E. coli', 'soluble');
